# test.system: δ-opioid receptor (Mus musculus, UniProt P32300)
# Construct: NG108-15 cell membranes were purchased from Applied Cell Sciences (Rockville, Md.); host or cells: NG108-15 cell membranes (purchased)
# Sequence (P32300 whole entry): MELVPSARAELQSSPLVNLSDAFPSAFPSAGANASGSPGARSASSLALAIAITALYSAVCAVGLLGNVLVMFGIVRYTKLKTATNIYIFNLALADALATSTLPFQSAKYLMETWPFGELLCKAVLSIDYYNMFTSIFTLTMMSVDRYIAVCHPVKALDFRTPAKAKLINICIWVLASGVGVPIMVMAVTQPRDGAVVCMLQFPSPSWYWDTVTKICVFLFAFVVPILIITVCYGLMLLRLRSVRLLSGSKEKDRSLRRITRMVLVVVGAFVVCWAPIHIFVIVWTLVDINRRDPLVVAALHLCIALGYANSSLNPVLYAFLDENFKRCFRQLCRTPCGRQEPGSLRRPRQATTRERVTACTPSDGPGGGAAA
# measurement.description: [35S]GTPγS binding assay in NG108-15 cell membranes (delta opioid functional assay)
# Assay type: biochemical
# condition.details: 200 nM compound; relative to calculated max of SNC80 dose response
# Experimental: Methods: NG108-15 cell membranes were purchased from Applied Cell Sciences (Rockville, Md.). 5 mg/mL of membrane protein was suspended in 10 mM TRIS-HCl pH 7.2, 2 mM EDTA, 10% sucrose. Membranes were maintained at 4-8° C. A 1 mL volume of membranes was added into 10 mL cold binding assay buffer. […] Data % of Basal=(stimulated−non specific)*100/(basal−non specific). Relative Efficacy of a compound at 200 nM=(% of Basal of test compound at 200 nM)/(Calculated Max of SNC80 dose response. Curve in prism).
recorded.endpoint: GTPγS δ-RelEfficacy @200 nM

[A] N#Cc1cncc(-c2cnc(NC[C@@H]3CCCN3)c(Oc3ccc4[nH]ccc4c3)n2)c1 [Cpd 40]
[B] Cc1ccc(Oc2nc(-c3cncc(C#N)c3)cnc2NC[C@@H]2CCCN2)cn1 [Cpd 28]
[C] CC(=O)Nc1cccc(Oc2nc(-c3cncnc3)cnc2NC[C@@H]2CCCN2)c1 [Cpd 13]
Req: Sort (3 molecules) by GTPγS δ-RelEfficacy @200 nM: min first. Labels, requested order.
Resp: C, B, A
(C: 0.0800, B: 0.1492, A: 0.6606)
